systemName: T1, human IGSF11 (VSIG3) expressed on the surface of cells (human, UniProt Q5DX21 23-431)
T1 construct: one molecule for all cell lines; the cell line is named under assay; also called IGSF11-expressing cells; HEK-OE
T1 sequence: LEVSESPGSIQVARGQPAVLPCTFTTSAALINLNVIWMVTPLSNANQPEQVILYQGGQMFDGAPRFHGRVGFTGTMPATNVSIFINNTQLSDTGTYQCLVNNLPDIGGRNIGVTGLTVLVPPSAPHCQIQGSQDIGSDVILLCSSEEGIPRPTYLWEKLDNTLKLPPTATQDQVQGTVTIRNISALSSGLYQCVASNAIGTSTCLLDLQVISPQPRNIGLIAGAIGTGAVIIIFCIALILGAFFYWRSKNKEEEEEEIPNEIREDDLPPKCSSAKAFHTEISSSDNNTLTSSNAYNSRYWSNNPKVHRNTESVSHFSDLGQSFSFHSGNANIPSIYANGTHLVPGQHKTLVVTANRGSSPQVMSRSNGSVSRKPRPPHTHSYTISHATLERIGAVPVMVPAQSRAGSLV
assayMethodText: FACS on M579-A2-luc cells treated with scrambled control siRNA (SC)
experimentalReadout: percentage binding (%)
Give the value, in units of %, as a plain number.

Sample A-012 (human IgG1 format) (antibody, V domains shown, human IgG1 format) VH: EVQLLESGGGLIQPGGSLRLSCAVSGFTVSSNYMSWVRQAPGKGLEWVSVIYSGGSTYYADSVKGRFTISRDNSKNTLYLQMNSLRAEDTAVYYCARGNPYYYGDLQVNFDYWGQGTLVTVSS VL: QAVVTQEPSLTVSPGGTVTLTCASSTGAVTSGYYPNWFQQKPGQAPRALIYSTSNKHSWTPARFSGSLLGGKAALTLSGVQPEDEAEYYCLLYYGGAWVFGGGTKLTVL — what was its percentage binding?
65.4

Sample A-011 (human IgG1 format) (antibody, V domains shown, human IgG1 format) VH: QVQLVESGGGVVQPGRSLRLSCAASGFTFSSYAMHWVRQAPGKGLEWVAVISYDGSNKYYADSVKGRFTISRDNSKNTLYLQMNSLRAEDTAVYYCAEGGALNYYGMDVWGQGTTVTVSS VL: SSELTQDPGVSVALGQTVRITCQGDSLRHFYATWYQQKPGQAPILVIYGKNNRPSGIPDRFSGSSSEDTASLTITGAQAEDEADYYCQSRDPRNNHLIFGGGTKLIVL — what was its percentage binding?
2.05
